Catalogue of IC50 readings, one per entry.
target: baculovirus-expressed ALK (Homo sapiens, UniProt Q9UM73); construct: host or cells: baculovirus expression system; assay: ALK Kinase Assay (ELISA-type, time-resolved fluorescence); format: biochemical; details: 1 μM ATP (Km level); read-out: ALK Activity (ALK Kinase Inhibition, IC50)
Sequence (Q9UM73 19-1620): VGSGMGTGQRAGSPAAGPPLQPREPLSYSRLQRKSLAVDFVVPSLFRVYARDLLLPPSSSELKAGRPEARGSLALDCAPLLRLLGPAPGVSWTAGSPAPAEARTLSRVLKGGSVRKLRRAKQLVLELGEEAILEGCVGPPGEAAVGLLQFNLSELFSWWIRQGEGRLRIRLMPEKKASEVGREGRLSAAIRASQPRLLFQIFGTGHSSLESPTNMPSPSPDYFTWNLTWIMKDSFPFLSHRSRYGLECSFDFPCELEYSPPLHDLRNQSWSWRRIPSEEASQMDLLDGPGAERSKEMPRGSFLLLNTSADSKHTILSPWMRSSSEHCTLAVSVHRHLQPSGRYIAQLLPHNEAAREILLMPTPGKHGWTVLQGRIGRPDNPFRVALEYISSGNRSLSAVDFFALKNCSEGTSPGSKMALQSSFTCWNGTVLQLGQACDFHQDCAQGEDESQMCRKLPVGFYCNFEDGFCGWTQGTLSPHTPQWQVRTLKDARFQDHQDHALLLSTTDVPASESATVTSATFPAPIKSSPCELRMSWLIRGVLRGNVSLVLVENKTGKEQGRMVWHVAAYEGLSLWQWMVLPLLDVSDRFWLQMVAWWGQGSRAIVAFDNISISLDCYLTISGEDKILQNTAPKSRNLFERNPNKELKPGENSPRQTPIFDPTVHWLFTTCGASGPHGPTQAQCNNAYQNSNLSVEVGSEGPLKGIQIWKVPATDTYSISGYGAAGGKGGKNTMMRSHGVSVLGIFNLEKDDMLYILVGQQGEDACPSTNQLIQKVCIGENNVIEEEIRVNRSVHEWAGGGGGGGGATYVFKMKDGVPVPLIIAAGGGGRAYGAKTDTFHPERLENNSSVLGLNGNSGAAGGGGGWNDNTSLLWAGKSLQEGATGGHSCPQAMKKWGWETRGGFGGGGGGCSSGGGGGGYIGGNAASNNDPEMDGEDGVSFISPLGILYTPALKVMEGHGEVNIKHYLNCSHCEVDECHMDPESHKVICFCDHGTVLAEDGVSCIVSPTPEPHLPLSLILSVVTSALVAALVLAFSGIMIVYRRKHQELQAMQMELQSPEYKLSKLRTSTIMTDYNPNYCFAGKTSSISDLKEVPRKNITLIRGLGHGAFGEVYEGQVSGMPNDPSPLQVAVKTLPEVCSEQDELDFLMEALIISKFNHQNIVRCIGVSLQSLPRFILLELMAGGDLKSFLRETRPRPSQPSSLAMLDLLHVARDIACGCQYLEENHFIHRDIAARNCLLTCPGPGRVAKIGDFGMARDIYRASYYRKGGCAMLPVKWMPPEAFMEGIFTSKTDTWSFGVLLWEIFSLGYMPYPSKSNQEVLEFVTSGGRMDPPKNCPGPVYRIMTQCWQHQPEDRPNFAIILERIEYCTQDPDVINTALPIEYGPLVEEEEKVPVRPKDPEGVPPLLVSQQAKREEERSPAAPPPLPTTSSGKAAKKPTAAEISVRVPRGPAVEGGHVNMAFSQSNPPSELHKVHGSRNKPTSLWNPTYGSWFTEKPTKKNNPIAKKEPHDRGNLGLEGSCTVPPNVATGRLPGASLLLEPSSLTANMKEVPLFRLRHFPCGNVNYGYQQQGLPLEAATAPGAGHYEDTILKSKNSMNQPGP

The following compounds have reported results that may help.
Inquiry: Which IC50 value is on record for CCN1CC(=O)N(C)c2cc(Nc3ncc(Cl)c(N[C@@H]4CCCC[C@H]4NS(C)(=O)=O)n3)c(OC)cc2C1 [Example 745] ?
Reply text: 100 to 1000 nM

Inquiry: Need IC50 of CC1(C)CCC(=O)Nc2ccc(Nc3ncc(Cl)c(Nc4ccccc4-c4ncccn4)n3)cc21 [Example 976] , thanks.
Reply text: < 100 nM

Inquiry: Reported IC50 for NC(=O)C1C2C=CC(C2)C1Nc1nc(Nc2ccc3c(c2)CCC(N2CCOCC2)CC3)ncc1Cl (stereo not shown) [Example 867] : what is it?
Reply text: < 100 nM

***
Inquiry: Which value of IC50 has been reported for CS(=O)(=O)N[C@@H]1CCCC[C@H]1Nc1nc(Nc2ccc3c(c2)CCC(NCC(F)F)CC3)ncc1Cl (stereo partly shown) [Example 662] in the records?
Reply text: < 100 nM

###

Let's look at some compounds and their measured pIC50.
target: c-Met (cytoplasmic domain) (Homo sapiens, UniProt P08581); construct: 10 ng/mL c-Met (cytoplasmic domain, Invitrogen Corporation #PV3143); purchased Invitrogen Corporation PV3143; test: c-Met Kinase Assay (same methods as for ALK, with modifications); type: biochemical; conditions: 1 μM ATP (Km level), 10 ng/mL c-Met; read-out: cMet Activity (c-Met kinase inhibition, IC50 class)
Sequence (P08581 956-1390 limits assumed): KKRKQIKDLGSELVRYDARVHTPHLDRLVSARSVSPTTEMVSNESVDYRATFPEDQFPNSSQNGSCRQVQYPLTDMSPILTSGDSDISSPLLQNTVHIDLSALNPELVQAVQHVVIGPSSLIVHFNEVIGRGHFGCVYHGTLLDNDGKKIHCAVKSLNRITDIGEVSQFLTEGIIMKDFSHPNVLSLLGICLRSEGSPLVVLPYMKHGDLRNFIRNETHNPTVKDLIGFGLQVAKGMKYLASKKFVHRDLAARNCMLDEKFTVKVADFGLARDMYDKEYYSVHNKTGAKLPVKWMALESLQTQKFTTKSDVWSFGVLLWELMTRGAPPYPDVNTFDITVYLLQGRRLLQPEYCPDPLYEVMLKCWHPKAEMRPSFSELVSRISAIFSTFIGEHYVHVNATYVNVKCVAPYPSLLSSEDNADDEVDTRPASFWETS
pIC50: −log10 of the molar value.

Inquiry: Any idea what pIC50 was measured for Clc1cnc(Nc2ccc3c(c2)CCC(N2CCOCC2)CC3)nc1Nc1ccccc1-n1cccn1 (centres unmarked) [Example 1034] ?
Reply text: 6.00 to 7.00

More entries:
Inquiry: Form field: reported pIC50 of COc1cc2c(cc1Nc1ncc(Cl)c(Nc3ccccc3-n3cccn3)n1)CCC(NCC(F)F)CC2 (centres unmarked) [Example 1059]
Reply text: < 5.00

###

Each entry below carries its reported pIC50.
target: baculovirus-expressed ALK (Homo sapiens, UniProt Q9UM73); construct: host or cells: baculovirus expression system; assay: ALK Kinase Assay (ELISA-type, time-resolved fluorescence); format: biochemical; details: ALK kinase inhibition, 1 μM ATP; read-out: ALK Activity
pIC50: −log10 of the molar value.

Examples with answers:
Inquiry: // lookup pIC50 for CNC(=O)c1ccccc1N(C)c1nc(Nc2ccc3c(c2)CN(C)C(=O)CC3)ncc1F
Reply text: 5.00 to 6.00

Inquiry: GET /values?readout=pIC50&item= CNC(=O)c1scc(C)c1Nc1nc(Nc2ccc3c(c2)-n2ccnc2CCC3)ncc1Cl
Reply text: 6.00 to 7.00

Inquiry: Fill blank: measured pIC50 of the compound O=C1CCCc2ccc(Nc3ncc(Cl)c(Nc4c(F)cccc4C(=O)NCC4CC4)n3)cc2N1 is ____.
Reply text: 5.00 to 6.00

Inquiry: Record request: pIC50 value, item COc1cc2c(cc1Nc1ncc(C(F)(F)F)c(Nc3ccc(N4CCOCC4)cc3OC)n1)CCOC(=O)N2C
Reply text: > 7.00

Inquiry: // lookup pIC50 for CNC(=O)c1cccc(F)c1Nc1nc(Nc2ccc3c(c2)N(CCN2CCCC2)CCCC3(C)C)ncc1Cl
Reply text: > 7.00

Others:
Inquiry: I have this compound here, CCN1C(=O)CCC(C)(C)c2ccc(Nc3ncc(Cl)c(Nc4c(F)cccc4C(=O)NC)n3)cc21 , and I need its recorded pIC50.
Reply text: > 7.00

Inquiry: Param item = CN1C(=O)OCCc2cc(Nc3ncc(Cl)c(Nc4c(F)cccc4OCCN)n3)ccc21 ; retrieve measured pIC50.
Reply text: 5.00 to 6.00

Inquiry: Look up pIC50 for this compound: COc1cc2c(cc1Nc1ncc(Cl)c(Nc3ccccc3OCC#N)n1)CCOC(=O)N2C
Reply text: > 7.00

Inquiry: What value of pIC50 has been recorded for this entry: COc1cc2c(cc1Nc1ncc(Cl)c(N[C@@H]3CCCC[C@H]3NS(C)(=O)=O)n1)NC(=O)CNC2
Reply text: > 7.00

Inquiry: Can you look up the measured pIC50 of COCCOc1ccccc1Nc1nc(Nc2ccc3c(c2)CCOC(=O)N3C)ncc1Cl for me?
Reply text: 6.00 to 7.00

Inquiry: Look up pIC50 for this compound: CC(=O)NCCOc1cccc(F)c1Nc1nc(Nc2ccc3c(c2)CCOC(=O)N3C)ncc1Cl
Reply text: 5.00 to 6.00

Inquiry: State the recorded pIC50 for this entry: CNC(=O)c1scc(C)c1Nc1nc(Nc2ccc3c(c2)-c2nccn2CCC3)ncc1Cl
Reply text: 5.00 to 6.00

Inquiry: I'd like to know its pIC50. The compound in question is C#CCNC(=O)c1sccc1Nc1nc(Nc2ccc3c(c2)CCOC(=O)N3C)ncc1Cl
Reply text: 6.00 to 7.00

###

biological target: c-Met (cytoplasmic domain) (Homo sapiens); construct: 10 ng/mL c-Met (cytoplasmic domain, Invitrogen Corporation #PV3143); purchased Invitrogen Corporation PV3143; experiment: c-Met Kinase Assay (same methods as for ALK, with modifications); format: biochemical; settings: c-Met kinase inhibition, 1 μM ATP; read-out: cMet Activity
recorded metric: IC50

Examples from the recorded data:
Inquiry: Fill in the blank: the reported IC50 of CNC(=O)c1cccc(F)c1Nc1nc(Nc2ccc3c(c2)NC(=O)CN(CCC(F)(F)F)C3)ncc1Cl [Example 1861] is ____.
Reply text: < 100 nM

Inquiry: Recorded IC50 for C#CCNC(=O)c1cc(F)cc(F)c1Nc1nc(Nc2ccc3c(c2)NC(=O)CCC3)ncc1Cl [Example 1729] , please?
Reply text: 100 to 1000 nM

Inquiry: Fill in the blank: the reported IC50 of CN1C(=O)OCCc2cc(Nc3ncc(Cl)c(Nc4ccccc4-n4cccn4)n3)ccc21 [Example 1766] is ____.
Reply text: 100 to 1000 nM

Inquiry: If you can, please state the reported IC50 value of CNC(=O)c1cccc(F)c1Nc1nc(Nc2ccc3c(c2)N(CCOC)CCCC3(C)C)ncc1Cl [Example 1599] .
Reply text: < 100 nM

Inquiry: Please give the measured IC50 for this molecule: CNC(=O)c1sccc1Nc1nc(Nc2ccc3c(c2)-n2ccnc2CCC3)ncc1Cl [Example 1840]
Reply text: 100 to 1000 nM

Inquiry: Data request, read-out IC50, for CNC(=O)c1scc(C)c1Nc1nc(Nc2ccc3c(c2)NC(=O)CN(C)C3)ncc1Cl [Example 1868]
Reply text: < 100 nM

Others:
Inquiry: Which IC50 is listed for CS(=O)(=O)N[C@@H]1CCCC[C@H]1Nc1nc(Nc2cc(F)cc3c2OCCNC3=O)ncc1Cl [Example 1683] ?
Reply text: > 10000 nM

Inquiry: IC50 lookup needed for COc1cc2c(cc1Nc1ncc(Cl)c(Nc3ccccc3S(=O)(=O)N3CC[C@@H](O)C3)n1)CCN(C[C@H](C)O)CC2 [Example 1554] , thanks.
Reply text: 100 to 1000 nM

Inquiry: # query: IC50 of entry COc1cc2c(cc1Nc1ncc(Cl)c(Nc3ccccc3OCC#N)n1)CCOC(=O)N2C [Example 1516]
Reply text: 1000 to 10000 nM

Inquiry: What measured IC50 goes with CNC(=O)c1cccc(C)c1Nc1nc(Nc2ccc3c(c2)CCC(=O)NC3(C)C)ncc1Cl [Example 1830] ?
Reply text: < 100 nM

Inquiry: What value of measured IC50 is listed for CCN1C(=O)C(NC(=O)COC)CC(C)(C)c2ccc(Nc3ncc(Cl)c(Nc4c(F)cccc4C(=O)NC)n3)cc21 (stereo not drawn) [Example 1644] ?
Reply text: < 100 nM

Inquiry: // IC50 lookup, key: CCN1CCNC(=O)c2ccc(Nc3ncc(Cl)c(Nc4ccccc4C(=O)NC)n3)cc21 [Example 1452]
Reply text: < 100 nM

###

Target: c-Met (cytoplasmic domain) (Homo sapiens, UniProt P08581)
Construct: 10 ng/mL c-Met (cytoplasmic domain, Invitrogen Corporation #PV3143); purchased Invitrogen Corporation PV3143
Test: c-Met Kinase Assay (same methods as for ALK, with modifications)
Format: biochemical
Conditions: 1 μM ATP (Km level); read-out: cMet Activity (c-Met Kinase Inhibition, IC50)
Method: Briefly, each 96-well plate was coated with 100 μL/well of 10 μg/mL substrate (phospholipase C-γ) in Tris-buffered saline (TBS). […] The reaction was initiated by adding enzyme (30 ng/ml ALK) and was allowed to proceed at 37° C. for 15 minutes. Detection of the phosphorylated product was performed by adding 100 μl/well of Eu-N1 labeled PT66 antibody (Perkin Elmer # AD0041). Data analysis was performed using ActivityBase (IDBS, Guilford, UK). […]
pIC50: −log10 of the molar value.
Catalogue of pIC50 readings, one per entry.

Inquiry: Give its pIC50 value. Item: CCN1CCN(CC)c2cc(Nc3ncc(Cl)c(Nc4ccccc4C(=O)OCCOC)n3)ccc2C1
Reply text: 5.00 to 6.00

Inquiry: State the recorded pIC50 for this entry: CCN1CC(=O)N(CC)c2cc(Nc3ncc(Cl)c(N[C@H]4[C@@H](C(N)=O)[C@@H]5C=C[C@H]4C5)n3)c(OC)cc2C1
Reply text: < 5.00

Inquiry: Return reported pIC50; argument: CCN1C(=O)CCCc2c1ccc(Nc1ncc(Cl)c(Nc3ccc(OC)cc3-n3cccn3)n1)c2OC
Reply text: < 5.00

Inquiry: Give the measured pIC50 of COc1ccc(Nc2nc(Nc3ccc4c(c3)CCC(O)CC4)ncc2Cl)c(-n2cccn2)c1 (stereo not shown) .
Reply text: 5.00 to 6.00

Inquiry: Suppose we examine the molecule CCN1C(=O)CN(CCOC)Cc2cc(OC)c(Nc3ncc(Cl)c(Nc4ccc(N5CCOCC5)cc4OC)n3)cc21 ; what pIC50 value has been reported?
Reply text: < 5.00

Inquiry: Quick one: pIC50 of CC1(C)CCC(=O)Nc2ccc(Nc3ncc(Cl)c(Nc4ccccc4-c4nc(C(F)(F)F)c[nH]4)n3)cc21 ?
Reply text: 5.00 to 6.00

Please examine the following record next.
Inquiry: Using the record for CCN1CC(=O)N(CC)c2cc(Nc3ncc(Cl)c(Nc4ccccc4S(=O)(=O)N(C)C)n3)c(OC)cc2C1 , report its pIC50.
Reply text: < 5.00
